# test.target: T1, recombinant human NKp30 extracellular domain, his-tagged (human, UniProt O14931 19-135)
# T1 construct: BLI used human NKp30 bought from Abcam (his-tagged ECD); also called rh NKp30 ECD; human NKp30 (Abcam); not shown: his tag
# T1 sequence: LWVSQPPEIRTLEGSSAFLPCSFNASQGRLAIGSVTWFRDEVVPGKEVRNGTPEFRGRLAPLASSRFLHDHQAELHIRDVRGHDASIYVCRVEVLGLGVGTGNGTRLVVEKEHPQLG
# method: BLI as in Example 1, maximum binding capacity
This listing pairs binders with measured Emax (nm).
reported.metric: Emax (nm)

- binder: "VHH2.1 (humanized) (VHH, expressed and measured by BLI 'as described in Experiment 1' (there: bispecific SEEDbody on anti-human Fc sensors)) VHH: EVQLVESGGGVVQAGGSLRLSCAVSGQTWTNYHIGWFRQAPGKARESVASIEWGGRGTYATDSVKGRFTISRDNAKNTVYLQMNSLRAEDTAVYYCAAQSSSRSPLESNYDYWGQGTLVTVSS"
  unit: "nm"
  value.reported: 0.18
- binder: "VHH2.8 (humanized) (VHH, expressed and measured by BLI 'as described in Experiment 1' (there: bispecific SEEDbody on anti-human Fc sensors)) VHH: EVQLVESGGGVVQPGGSLRLSCAVSGQTWTNYHIGWFRQAPGKGLEWVASIEWGGRGTYATDSVKGRFTISRDNAKNTLYLQMNSLRAEDTAVYYCAAQSSSRSPLESNYDYWGQGTLVTVSS"
  unit: "nm"
  value.reported: 0.1
- binder: "VHH2.5 (humanized) (VHH, expressed and measured by BLI 'as described in Experiment 1' (there: bispecific SEEDbody on anti-human Fc sensors)) VHH: EVQLVESGGGVVQPGGSLRLSCAVSGQTWTNYHIGWFRQAPGKGLESVASIEWGGRGTYATDSVKGRFTISRDNAKNTVYLQMNSLRAEDTAVYYCAAQSSSRSPLESNYDYWGQGTLVTVSS"
  unit: "nm"
  value.reported: 0.11
- binder: "VHH2.12 (humanized) (VHH, expressed and measured by BLI 'as described in Experiment 1' (there: bispecific SEEDbody on anti-human Fc sensors)) VHH: EVQLVESGGGVVQPGGSLRLSCAASGQTWTNYHIGWFRQAPGKGLEWVASIEWGGRGTYATDSVKGRFTISRDNAKNTVYLQMNSLRAEDTAVYYCAAQSSSRSPLESNYDYWGQGTLVTVSS"
  unit: "nm"
  value.reported: 0.14
